Please find below IC50 measurements for human PDE10A2 (Homo sapiens (Human)), combined from several publications.
MEASURED_ENDPOINT: IC50 (nM)

Worked examples follow.
1. Cc1ccc(C(C)(C)O)cc1-c1nnc2c(C)nc3ccc(C(C)C)nc3n12 = 2850
2. Cc1nc2ccc(C3CC3)nc2n2c(-c3cc(CC(C)(C)O)ccc3F)nnc12 = 5410
3. Nc1nccn2c(C3CCCC4(CC4)C3)nnc12 (single isomer, unassigned) = 8600
4. c1ccc2nc(N[C@H]3C[C@H](n4cnc5cccnc54)C3)ncc2c1 = 178
5. CCOC(=O)CCc1ccc(NC(=O)c2nc(C3CC3)cnc2Nc2cncnc2)c(C(=O)NC)c1 = 0.6

[I] O=c1n(C2CC2)c2cncnc2n1[C@H]1C[C@H](Nc2nc3ccccc3s2)C1
[II] Cc1ncc(C)n2nc(CCc3cn4c(n3)-c3ccc(F)cc3C4)nc12
q: Pick one: I or II . Which one has the lower reported IC50? I would appreciate it if you answered with the label of your choice.
a: II
(II: 0.18 nM, I: 0.469 nM)

[P] [2H]C([2H])([2H])c1ncc(C([2H])([2H])[2H])n2nc(CCc3cn4c(n3)-c3ccccc3C4([2H])[2H])nc12
[Q] Cn1ncc(C(=O)N2CC(F)C2)c1C(=O)Nc1ccn2cc(-c3cccc(OCCF)c3)nc2n1
[R] CNC(=O)c1cc(C#Cc2nc(N3CCCC3)nn2C)nn2c(C)c(C(F)(F)F)nc12
[S] O=C(Nc1cnccc1C(=O)N1CCC(O)C1)c1nc(C2CC2)ccc1Nc1cncnc1 (centres unmarked)
[T] Cn1cc(-c2ccccc2)nc1COc1ccc2nc(C(F)(F)F)cn2n1
q: Please order the records by their reported IC50, lowest number first. Rank the items, then write their labels in that order.
a: P, R, Q, S, T
(P: 0.4 nM, R: 2.1 nM, Q: 6.1 nM, S: 180 nM, T: 328 nM)

[A] Cn1ncc(C(=O)NCc2ccc(C(F)(F)F)nc2)c1C(=O)Nc1ccn2cc(-c3ccccc3)nc2n1
[B] Cc1cnc(C)n2nc(CCc3nc(N4CCCC4)nn3C)nc12
q: Pick one: A or B . Which one has the lower reported IC50? I would appreciate it if you answered with the label of your choice.
a: B

* * *

Please find below pIC50 measurements for human PDE10A2 (Homo sapiens (Human)), combined from several publications.
pIC50: −log10 of the molar value.
MEASURED_ENDPOINT: pIC50

Worked examples follow.
1) c1cnc2nc(N[C@H]3C[C@H](n4c(C5CC5)nc5cccnc54)C3)ccc2c1 = 8.26
2) Cc1nnc2ccc(C#Cc3nc(N4CCCC4)nn3C)nn12 = 7.42
3) Cn1ncc(C(=O)N2CC(F)(F)C2)c1C(=O)Nc1ccn2cc(-c3ccccc3)nc2n1 = 7.46
4) Cc1ccc(C)n2nc(CCc3nc(N4CCCC4)nn3C)nc12 = 8.38
5) Cn1nc(N2CCCC2)nc1CCc1nc2ccc3ccccc3n2n1 = 7.53
6) CCc1cc(CNC(=O)c2cnn(C)c2C(=O)Nc2ccn3cc(-c4ccccc4)nc3n2)on1 = 6.34
7) Cn1ncc(C(=O)N2CCC2)c1C(=O)Nc1ccn2cc(-c3cccc(OC(F)(F)F)c3)nc2n1 = 7.63
8) C[C@@H]1CCC[C@H](c2nnc3c(N)nccn23)C1 = 5.53

[a] COc1cccn2nc(CCc3nc(-c4ccc(C)o4)cn3C)nc12
[b] CNC(=O)c1ncncc1NC(=O)c1nc(C2CC2)cnc1Nc1cncnc1
[c] O=C(NCCO)c1ncccc1NC(=O)c1nc(C2CC2)cnc1Nc1cncnc1
[d] Cc1c(CO)nc2ccc(OCc3nc(-c4ccccc4)cn3C)nn12
[e] Cc1ncc(C)n2nc(CCc3nc(-c4cccnc4)nn3C)nc12
q: hey, can you rank those molecules up there by pIC50? biggest number first please Rank the items, then write their labels in that order.
a: c, b, a, e, d
(c: 9.40, b: 8.28, a: 7.25, e: 6.96, d: 6.44)

* * *

Please find below IC50 measurements for human PDE10A2 (Homo sapiens (Human), UniProt Q9Y233), combined from several publications.
MEASURED_ENDPOINT: IC50 (nM)

Worked examples follow.
1. CNC(=O)c1c(F)cc(F)cc1NC(=O)c1nc(C2CC2)cnc1Nc1cncnc1 = 0.3
2. c1ccc2sc(N[C@H]3C[C@H](n4c(C5CC5)nc5cccnc54)C3)nc2c1 = 0.373
3. Cc1cc(C)n2nc(CCc3nc(-c4ccccc4)nn3C)nc2n1 = 59

[1] Cn1ncc(C(=O)NCC#N)c1C(=O)Nc1ccn2cc(-c3ccccc3)nc2n1
[2] CC1(C)C(=O)N(C2CCN(c3ccc4ccc(F)cc4n3)CC2)c2ncccc21
[3] Cn1nc(N2CCCC2)nc1CCc1nc2cccc(C(F)(F)F)n2n1
[4] Cc1ncc(C)n2nc(CCc3cn4c(n3)-c3ccccc3CC4)nc12
q: hey, can you rank those molecules up there by IC50? biggest number first please Rank the items, then write their labels in that order.
a: 3, 1, 2, 4
(3: 56.6 nM, 1: 18.7 nM, 2: 2.1 nM, 4: 0.81 nM)

* * *

Please find below IC50 measurements for human PDE10A2 (Homo sapiens (Human), UniProt Q9Y233), combined from several publications.
MEASURED_ENDPOINT: IC50 (nM)

Worked examples follow.
1) CC(C)n1nc([N+](=O)[O-])cc1C(=O)Nc1ccn2cc(-c3ccccc3)nc2n1 = 82.1
2) Cn1ncc(C(=O)NCc2cocn2)c1C(=O)Nc1ccn2cc(-c3ccccc3)nc2n1 = 1.3
3) COCC(O)Cn1cc(-c2cccs2)nc1CCc1cn2c(C)cc(C)nc2n1 (centres unmarked) = 7.9
4) c1cnc2c(c1)nc(C1CC1)n2[C@H]1C[C@H](Nc2ccc3ccncc3n2)C1 = 28.4
5) CNC(=O)c1cc(C#Cc2nc(N3CCCC3)nn2C)nn2c(C)c(C)nc12 = 1

[I] Cn1cc(-c2ccncc2)c(-c2ccc(OCc3nc4cccc5c4n3CCC5)cc2)n1
[II] Nc1nccn2c(C3CCc4[nH]ncc4C3)nnc12 (centres unmarked)
q: Pick one: I or II . Which one has the lower reported IC50? I would appreciate it if you answered with the label of your choice.
a: I
(I: 3.09 nM, II: 10600 nM)

* * *

pIC50: −log10 of the molar value.
Please find below pIC50 measurements for human PDE10A2 (Homo sapiens (Human), UniProt Q9Y233), combined from several publications.
MEASURED_ENDPOINT: pIC50

1) Cc1cnc(C)n2nc(CCc3nc(N4CCCC4=O)cn3C)nc12 = 7.41
2) CN(C)C(=O)c1c(NC(=O)c2nc(C3CC3)cnc2Nc2cncnc2)ccc(F)c1F = 7.62
3) Cc1nc2ccc(CCc3nc(-c4cccnc4)cn3C)nn2c1C = 5.77
4) COCCN(C)C(=O)c1cnn(C)c1C(=O)Nc1ccn2cc(-c3cccc(OCF)c3)nc2n1 = 7.72
5) CNC(=O)c1c(NC(=O)c2nc(N3CCOCC3)cnc2Nc2cncnc2)cnn1C = 8.39
6) CCn1nc(N2CCCC2)nc1/C=C/c1nc2nc(C)cc(C)n2n1 = 6.69
7) Cc1ncc(C)n2nc(CCc3nc(N4CCC[C@H]4C)nn3C)nc12 = 7.24
8) Cc1cc(C)n2cc(/C=C/c3nc(-c4cncs4)cn3C)nc2n1 = 7.01

[a] Cc1nc2ccc(CCc3nc(N4CCCC4)nn3C)nn2c1C
[b] Cc1nc2ccc(C(F)(F)F)nc2n2c(-c3cc(O)ccc3Cl)nnc12
q: Pick one: a or b . Which one has the lower reported pIC50? I would appreciate it if you answered with the label of your choice.
a: b
(b: 7.36, a: 7.96)

[A] Cc1cccc2nc(CCc3nc(-c4cncs4)cn3C)nn12
[B] Nc1ncnc2c1nnn2C1CCCCC1(F)F (single isomer, unassigned)
q: Hi there! Just curious which has the higher pIC50 between A and B . I would appreciate it if you answered with the label of your choice.
a: A
(A: 7.41, B: 4.91)

* * *

pIC50: −log10 of the molar value.
Please find below pIC50 measurements for human PDE10A2 (Homo sapiens (Human)), combined from several publications.
MEASURED_ENDPOINT: pIC50

1) O=c1n(C2CC2)c2cc(F)cnc2n1[C@H]1C[C@H](Nc2nc3ccccc3s2)C1 = 10.10
2) CN(C(=O)c1c(NC(=O)c2nc(C3CC3)cnc2Nc2cncnc2)cnn1C)C1CCOCC1 = 7.38
3) CNC(=O)c1c(NC(=O)c2nc(OCC(F)(F)F)ncc2Nc2cncnc2)cnn1C = 6.90
4) CC1(C)C(=O)N([C@H]2C[C@H](Nc3nc4cc(F)ccc4s3)C2)c2nccnc21 = 9.87
5) Cn1ncc(C(=O)NCc2ccccc2)c1C(=O)Nc1ccn2cc(-c3ccccc3)nc2n1 = 6.21

[A] Cc1c(Cl)cc(C(F)F)c2nc(CCc3nc(N4CCCC4)nn3C)nn12
[B] Cc1cccc2nc(CCc3nc(-c4cccnc4)c[nH]3)nn12
q: Hi there! Just curious which has the higher pIC50 between A and B . I would appreciate it if you answered with the label of your choice.
a: A

[A] CCNC(=O)c1c(NC(=O)c2nc(C3CC3)cnc2Nc2cncnc2)sc2c1CCCC2
[B] Nc1nccn2c(C3CCC4CC4C3)nnc12 (single isomer, unassigned)
[C] CCOC(=O)Cn1nc(-c2ccccn2)cc1NC(=O)c1nc(C2CC2)ccc1Nc1cncnc1
q: hey, can you rank those compounds up there by pIC50? biggest number first please Rank the items, then write their labels in that order.
a: C, A, B
